Test system: P. aeruginosa ATCC 27853
assay comment: MIC by broth microdilution
Assay type: cell-based, Pseudomonas aeruginosa
experimental parameters: peptidomimetic alone
measured parameter: MIC P. aeruginosa ATCC 27853 (µM)
Supply the numeric figure in µM, leaving out any unit text.

Task: I'm curious: which MIC P. aeruginosa ATCC 27853 was measured for COCCOCCOCC(=O)N[C@@H](CCCCN)C(=O)N(CCC(=O)N[C@@H](CCCCNC(=N)N)C(=O)N(CCC(=O)N[C@@H](CCCCN)C(=O)N(CCC(=O)N[C@@H](CCCCNC(=N)N)C(=O)N(CCC(=O)N[C@@H](CCCCN)C(=O)N(CCC(=O)N[C@@H](CCCCNC(=N)N)C(=O)N(CCC(N)=O)[C@@H](C)c1ccccc1)[C@@H](C)c1ccccc1)[C@@H](C)c1ccccc1)[C@@H](C)c1ccccc1)[C@@H](C)c1ccccc1)[C@@H](C)c1ccccc1 tested on P. aeruginosa ATCC 27853?
Output: 16

Task: I'm curious: which MIC P. aeruginosa ATCC 27853 was measured for C[C@@H](c1ccccc1)N(CCC(N)=O)C(=O)[C@H](CCCCNC(=N)N)NC(=O)CCN(C(=O)[C@H](CCCCN)NC(=O)CCN(C(=O)[C@H](CCCCNC(=N)N)NC(=O)CCN(C(=O)[C@H](CCCCN)NC(=O)CCN(C(=O)[C@H](CCCCNC(=N)N)NC(=O)CCN(C(=O)[C@H](CCCCN)NC(=O)CNCCCNCCCCNCCCN)[C@@H](C)c1ccccc1)[C@@H](C)c1ccccc1)[C@@H](C)c1ccccc1)[C@@H](C)c1ccccc1)[C@@H](C)c1ccccc1 tested on P. aeruginosa ATCC 27853?
Output: 2

Task: I'm curious: which MIC P. aeruginosa ATCC 27853 was measured for CC(=O)N[C@@H](CCCCN)C(=O)N(CCC(=O)N[C@@H](CCCCN)C(=O)N(CCC(=O)N[C@@H](CCCCN)C(=O)N(CCC(=O)N[C@@H](CCCCN)C(=O)N(CCC(=O)N[C@@H](CCCCN)C(=O)N(CCC(=O)N[C@@H](CCCCN)C(=O)N(CCC(=O)N[C@@H](CCCCN)C(=O)N(CCC(=O)N[C@@H](CCCCN)C(=O)N(CCC(N)=O)Cc1ccccc1)Cc1ccccc1)Cc1ccccc1)Cc1ccccc1)Cc1ccccc1)Cc1ccccc1)Cc1ccccc1)Cc1ccccc1 tested on P. aeruginosa ATCC 27853?
Output: 1

Task: I'm curious: which MIC P. aeruginosa ATCC 27853 was measured for CC(=O)N[C@@H](CCCCN)C(=O)N(CCC(=O)N[C@@H](CCCCN)C(=O)N(CCC(=O)N[C@@H](CCCCN)C(=O)N(CCC(=O)N[C@@H](CCCCN)C(=O)N(CCC(=O)N[C@@H](CCCCN)C(=O)N(CCC(=O)N[C@@H](CCCCN)C(=O)N(CCC(N)=O)Cc1ccccc1)Cc1ccccc1)Cc1ccccc1)Cc1ccccc1)Cc1ccccc1)Cc1ccccc1 tested on P. aeruginosa ATCC 27853?
Output: 16

Task: I'm curious: which MIC P. aeruginosa ATCC 27853 was measured for NCCCC[C@H](NC(=O)CCN(Cc1ccccc1)C(=O)[C@H](CCCCN)NC(=O)CCN(Cc1ccccc1)C(=O)[C@H](CCCCN)NC(=O)CCN(Cc1ccccc1)C(=O)[C@H](CCCCN)NC(=O)CCN(Cc1ccccc1)C(=O)[C@H](CCCCN)NC(=O)CCN(Cc1ccccc1)C(=O)[C@H](CCCCN)NC(=O)CCN(Cc1ccccc1)C(=O)[C@H](CCCCN)NC(=O)CCN(Cc1ccccc1)C(=O)[C@@H](N)CCCCN)C(=O)N(CCC(N)=O)Cc1ccccc1 tested on P. aeruginosa ATCC 27853?
Output: 1

Task: I'm curious: which MIC P. aeruginosa ATCC 27853 was measured for C[C@@H](c1ccccc1)N(CCC(N)=O)C(=O)[C@H](CCCCNC(=N)N)NC(=O)CCN(C(=O)[C@H](CCCCN)NC(=O)CCN(C(=O)[C@H](CCCCNC(=N)N)NC(=O)CCN(C(=O)[C@H](CCCCN)NC(=O)CCN(C(=O)[C@H](CCCCNC(=N)N)NC(=O)CCN(C(=O)[C@H](CCCCN)NC(=O)CNCCN)[C@@H](C)c1ccccc1)[C@@H](C)c1ccccc1)[C@@H](C)c1ccccc1)[C@@H](C)c1ccccc1)[C@@H](C)c1ccccc1 tested on P. aeruginosa ATCC 27853?
Output: 8

###

assay comment: MTS/PMS cell viability assay
Assay type: cell-based, mouse
experimental parameters: mouse, NIH 3T3 fibroblasts, 1 h exposure, read-out: Cytotoxicity NIH 3T3 EC50 ± SD
// returns no (0) unless EC50 at 1 h is strictly below 200 µM, in which case yes (1)

Task: Quick check: EC50 at 1 h of NCCCC[C@H](NC(=O)CCN(Cc1ccccc1)C(=O)[C@H](CCCCN)NC(=O)CCN(Cc1ccccc1)C(=O)[C@H](CCCCN)NC(=O)CCN(Cc1ccccc1)C(=O)[C@H](CCCCN)NC(=O)CCN(Cc1ccccc1)C(=O)[C@H](CCCCN)NC(=O)CCN(Cc1ccccc1)C(=O)[C@H](CCCCN)NC(=O)CCN(Cc1ccccc1)C(=O)[C@H](CCCCN)NC(=O)CCN(Cc1ccccc1)C(=O)[C@@H](N)CCCCN)C(=O)N(CCC(N)=O)Cc1ccccc1 under 200 µM?
Output: no (0)

Task: Quick check: EC50 at 1 h of CC(=O)N[C@@H](CCCCN)C(=O)N(CCC(=O)N[C@@H](CCCCN)C(=O)N(CCC(=O)N[C@@H](CCCCN)C(=O)N(CCC(=O)N[C@@H](CCCCN)C(=O)N(CCC(=O)N[C@@H](CCCCN)C(=O)N(CCC(=O)N[C@@H](CCCCN)C(=O)N(CCC(=O)N[C@@H](CCCCN)C(=O)N(CCC(=O)N[C@@H](CCCCN)C(=O)N(CCC(N)=O)Cc1ccccc1)Cc1ccccc1)Cc1ccccc1)Cc1ccccc1)Cc1ccccc1)Cc1ccccc1)Cc1ccccc1)Cc1ccccc1 under 200 µM?
Output: no (0)

Task: Quick check: EC50 at 1 h of C[C@@H](c1ccccc1)N(CCC(N)=O)C(=O)[C@H](CCCCNC(=N)N)NC(=O)CCN(C(=O)[C@H](CCCCN)NC(=O)CCN(C(=O)[C@H](CCCCNC(=N)N)NC(=O)CCN(C(=O)[C@H](CCCCN)NC(=O)CCN(C(=O)[C@H](CCCCNC(=N)N)NC(=O)CCN(C(=O)[C@H](CCCCN)NC(=O)CNCCCNCCCCNCCCN)[C@@H](C)c1ccccc1)[C@@H](C)c1ccccc1)[C@@H](C)c1ccccc1)[C@@H](C)c1ccccc1)[C@@H](C)c1ccccc1 under 200 µM?
Output: yes (1)

Task: Quick check: EC50 at 1 h of CC(=O)N[C@@H](CCCCN)C(=O)N(CCC(=O)N[C@@H](CCCCN)C(=O)N(CCC(=O)N[C@@H](CCCCN)C(=O)N(CCC(=O)N[C@@H](CCCCN)C(=O)N(CCC(=O)N[C@@H](CCCCN)C(=O)N(CCC(=O)N[C@@H](CCCCN)C(=O)N(CCC(N)=O)Cc1ccccc1)Cc1ccccc1)Cc1ccccc1)Cc1ccccc1)Cc1ccccc1)Cc1ccccc1 under 200 µM?
Output: no (0)

Task: Quick check: EC50 at 1 h of C[C@@H](c1ccccc1)N(CCC(N)=O)C(=O)[C@H](CCCCNC(=N)N)NC(=O)CCN(C(=O)[C@H](CCCCN)NC(=O)CCN(C(=O)[C@H](CCCCNC(=N)N)NC(=O)CCN(C(=O)[C@H](CCCCN)NC(=O)CCN(C(=O)[C@H](CCCCNC(=N)N)NC(=O)CCN(C(=O)[C@H](CCCCN)NC(=O)CNCCN)[C@@H](C)c1ccccc1)[C@@H](C)c1ccccc1)[C@@H](C)c1ccccc1)[C@@H](C)c1ccccc1)[C@@H](C)c1ccccc1 under 200 µM?
Output: yes (1)

###

Tested on: E. coli ST131
experimental parameters: checkerboard
measured parameter: Peptidomimetic MIC alone
Answers without a unit are incomplete; give the number and then its unit.

Task: What value of measured Peptidomimetic MIC alone is listed for CC(=O)N[C@@H](CCCCN)C(=O)N(CCC(=O)N[C@@H](CCCCN)C(=O)N(CCC(=O)N[C@@H](CCCCN)C(=O)N(CCC(=O)N[C@@H](CCCCN)C(=O)N(CCC(=O)N[C@@H](CCCCN)C(=O)N(CCC(=O)N[C@@H](CCCCN)C(=O)N(CCC(=O)N[C@@H](CCCCN)C(=O)N(CCC(=O)N[C@@H](CCCCN)C(=O)N(CCC(N)=O)Cc1ccccc1)Cc1ccccc1)Cc1ccccc1)Cc1ccccc1)Cc1ccccc1)Cc1ccccc1)Cc1ccccc1)Cc1ccccc1 [Peptidomimetic 15, Ac-(Lys-βNPhe)8-NH2] ?
Output: 1 µM

###

System: K. pneumoniae ST258
experimental parameters: combined with AZM
measured parameter: Peptidomimetic MIC in combination (µM)
Supply the numeric figure in µM, leaving out any unit text.

Task: What value of measured Peptidomimetic MIC in combination is listed for C[C@@H](c1ccccc1)N(CCC(N)=O)C(=O)[C@H](CCCCNC(=N)N)NC(=O)CCN(C(=O)[C@H](CCCCN)NC(=O)CCN(C(=O)[C@H](CCCCNC(=N)N)NC(=O)CCN(C(=O)[C@H](CCCCN)NC(=O)CCN(C(=O)[C@H](CCCCNC(=N)N)NC(=O)CCN(C(=O)[C@H](CCCCN)NC(=O)CNCCN)[C@@H](C)c1ccccc1)[C@@H](C)c1ccccc1)[C@@H](C)c1ccccc1)[C@@H](C)c1ccccc1)[C@@H](C)c1ccccc1 ?
Output: 0.5

Task: What value of measured Peptidomimetic MIC in combination is listed for C[C@@H](c1ccccc1)N(CCC(N)=O)C(=O)[C@H](CCCCNC(=N)N)NC(=O)CCN(C(=O)[C@H](CCCCN)NC(=O)CCN(C(=O)[C@H](CCCCNC(=N)N)NC(=O)CCN(C(=O)[C@H](CCCCN)NC(=O)CCN(C(=O)[C@H](CCCCNC(=N)N)NC(=O)CCN(C(=O)[C@H](CCCCN)NC(=O)CNCCCNCCCCNCCCN)[C@@H](C)c1ccccc1)[C@@H](C)c1ccccc1)[C@@H](C)c1ccccc1)[C@@H](C)c1ccccc1)[C@@H](C)c1ccccc1 ?
Output: 0.5

Task: What value of measured Peptidomimetic MIC in combination is listed for NCCCC[C@H](NC(=O)CCN(Cc1ccccc1)C(=O)[C@H](CCCCN)NC(=O)CCN(Cc1ccccc1)C(=O)[C@H](CCCCN)NC(=O)CCN(Cc1ccccc1)C(=O)[C@H](CCCCN)NC(=O)CCN(Cc1ccccc1)C(=O)[C@H](CCCCN)NC(=O)CCN(Cc1ccccc1)C(=O)[C@H](CCCCN)NC(=O)CCN(Cc1ccccc1)C(=O)[C@H](CCCCN)NC(=O)CCN(Cc1ccccc1)C(=O)[C@@H](N)CCCCN)C(=O)N(CCC(N)=O)Cc1ccccc1 ?
Output: 0.5

Task: What value of measured Peptidomimetic MIC in combination is listed for COCCOCCOCC(=O)N[C@@H](CCCCN)C(=O)N(CCC(=O)N[C@@H](CCCCNC(=N)N)C(=O)N(CCC(=O)N[C@@H](CCCCN)C(=O)N(CCC(=O)N[C@@H](CCCCNC(=N)N)C(=O)N(CCC(=O)N[C@@H](CCCCN)C(=O)N(CCC(=O)N[C@@H](CCCCNC(=N)N)C(=O)N(CCC(N)=O)[C@@H](C)c1ccccc1)[C@@H](C)c1ccccc1)[C@@H](C)c1ccccc1)[C@@H](C)c1ccccc1)[C@@H](C)c1ccccc1)[C@@H](C)c1ccccc1 ?
Output: 2

Task: What value of measured Peptidomimetic MIC in combination is listed for CC(=O)N[C@@H](CCCCN)C(=O)N(CCC(=O)N[C@@H](CCCCN)C(=O)N(CCC(=O)N[C@@H](CCCCN)C(=O)N(CCC(=O)N[C@@H](CCCCN)C(=O)N(CCC(=O)N[C@@H](CCCCN)C(=O)N(CCC(=O)N[C@@H](CCCCN)C(=O)N(CCC(=O)N[C@@H](CCCCN)C(=O)N(CCC(=O)N[C@@H](CCCCN)C(=O)N(CCC(N)=O)Cc1ccccc1)Cc1ccccc1)Cc1ccccc1)Cc1ccccc1)Cc1ccccc1)Cc1ccccc1)Cc1ccccc1)Cc1ccccc1 ?
Output: 0.5

meta.source: paper PMC6615261
